# Read-out: E-selectin (Homo sapiens) (UniProt P16581)
# Sequence (P16581 whole entry, looked up): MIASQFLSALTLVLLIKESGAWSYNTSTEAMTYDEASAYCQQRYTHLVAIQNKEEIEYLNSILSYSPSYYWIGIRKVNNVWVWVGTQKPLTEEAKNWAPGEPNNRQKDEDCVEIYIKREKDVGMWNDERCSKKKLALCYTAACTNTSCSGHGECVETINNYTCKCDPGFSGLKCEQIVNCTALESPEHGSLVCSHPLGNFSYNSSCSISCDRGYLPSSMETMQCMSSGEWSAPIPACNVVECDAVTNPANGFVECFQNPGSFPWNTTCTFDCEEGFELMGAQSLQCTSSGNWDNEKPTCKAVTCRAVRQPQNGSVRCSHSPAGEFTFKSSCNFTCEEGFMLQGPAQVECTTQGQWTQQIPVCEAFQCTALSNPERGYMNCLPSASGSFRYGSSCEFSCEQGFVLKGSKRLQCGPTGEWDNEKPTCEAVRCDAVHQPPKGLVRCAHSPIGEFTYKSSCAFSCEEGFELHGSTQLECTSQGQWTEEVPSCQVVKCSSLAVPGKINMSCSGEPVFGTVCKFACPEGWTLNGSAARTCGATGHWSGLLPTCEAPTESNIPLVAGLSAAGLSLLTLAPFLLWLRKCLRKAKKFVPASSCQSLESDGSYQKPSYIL
# experiment-notes: BSK_LPS_Eselectin: BioMAP Diversity Plus: LPS Assay for Eselectin Biomarker Activity (AID 2283077)
# run-conditions: primary human HUVEC with PBMC; actives raise or lower the signal
Active and inactive are the calls of the source. The calls were made as follows: active = hit-call score of the fitted dose curve at least 0.9, where 1 is the maximum; inactive = score below 0.9.
readout: outcome

INSERT INTO assay_data (molecule, result) VALUES
  ('Cn1cnc2c1c(=O)[nH]c(=O)n2C', 'inactive'),
  ('Cc1cn([C@H]2C=C[C@@H](CO)O2)c(=O)[nH]c1=O', 'inactive'),
  ('C#CC(O)C(CC)CCCC (centres undefined)', 'inactive'),
  ('O=C1OC(c2ccc(O)cc2)(c2ccc(O)cc2)c2ccccc21', 'inactive');

----------
# Read-out: TIMP metallopeptidase inhibitor 1 (TIMP1), TIMP1 (gene 7076)
# experiment-notes: BSK_hDFCGF_TIMP1: BioMAP Diversity Plus: hDFCGF Assay for TIMP metallopeptidase inhibitor 1 (TIMP1) Biomarker Activity (AID 2283062)
# run-conditions: primary human foreskin fibroblasts; actives raise or lower the signal
Calls of active or inactive are those of the source. Rule for the calls: active = hit-call score of the fitted dose curve at least 0.9, where 1 is the maximum; inactive = score below 0.9.
readout: outcome

INSERT INTO assay_data (compound, result) VALUES
  ('O=C(Oc1ccccc1)c1cccc(C(=O)Oc2ccccc2)c1', 'inactive'),
  ('O=C(O)c1[nH]n(-c2ccc(S(=O)(=O)O)cc2)c(=O)c1N=Nc1ccc(S(=O)(=O)O)cc1', 'inactive'),
  ('CCOCCOCCO', 'inactive'),
  ('CC(C)c1cccc(C(C)C)c1NC(=O)NS(=O)(=O)c1cc(C(C)(C)O)co1', 'inactive'),
  ('CN(C)C(=O)NC1(c2ccccc2)CCN(CC[C@@]2(c3ccc(F)c(F)c3)CN(C(=O)c3ccccc3)CCO2)CC1', 'inactive'),
  ('Cc1ccc(C(C)(C)C)c(O)c1', 'inactive'),
  ('CCCCCCC(C=O)=Cc1ccccc1', 'inactive'),
  ('NCCOCCOCCN', 'inactive'),
  ('COC(=O)CCC(=O)OC', 'inactive'),
  ('O=C(O)CC(O)(CC(=O)O)C(=O)O', 'inactive'),
  ('O=C(O)CN(CC(=O)O)CC(=O)O', 'inactive'),
  ('CC(=O)OC1CC(C)OC(C)O1 (stereo not drawn)', 'inactive'),
  ('OCC(O)CO', 'inactive');

----------
# experiment-notes: APR_HepG2_NuclearSize_24hr: Apredica 24-hour HepG2 Assay for Nuclear Size (AID 2282907)
# run-conditions: high-content imaging, actives raise or lower the signal
# Experimental: APR_HepG2_24hr is a cell-based, multiplexed-readout assay that uses HepG2, a human liver cell line, with measurements taken at 24 hours after chemical dosing in a 384-well plate.APR_HepG2_NuclearSize_24hr is one of 10 assay component(s) measured or calculated from the APR_HepG2_24hr assay. […] This assay endpoint, APR_HepG2_NuclearSize_24hr, was analyzed with bidirectional fitting relative to DMSO as the negative control and baseline of activity. […]
The source made the active and inactive calls. How the source made its calls: active means hit-call score of the fitted dose curve at least 0.9, where 1 is the maximum; inactive means score below 0.9.
Outcomes: yes (1) = active, no (0) = inactive

INSERT INTO results (smiles_input, cat) VALUES
  ('O=C(Oc1ccccc1)c1cccc(C(=O)Oc2ccccc2)c1', 'no (0)'),
  ('Oc1ccc(O)cc1', 'no (0)'),
  ('Cc1ccc(-c2cc(C(F)(F)F)nn2-c2ccc(S(N)(=O)=O)cc2)cc1', 'yes (1)'),
  ('S=c1[nH]c2ccccc2s1', 'no (0)'),
  ('CSc1ccc(Oc2ccc(S(N)(=O)=O)cc2CN(C)C)cc1C', 'no (0)'),
  ('O=C(O)CC(O)(CC(=O)O)C(=O)O', 'no (0)'),
  ('c1ccc2occc2c1', 'no (0)');
